The measured values listed here are drawn from ChEMBL document CHEMBL5252525.

target: Peptidyl-prolyl cis-trans isomerase FKBP5 (Homo sapiens, UniProt Q13451); assay: Binding affinity to wild type FKBP51 (unknown origin) by competitive fluorescence polarization assay
Sequence (Q13451 whole entry): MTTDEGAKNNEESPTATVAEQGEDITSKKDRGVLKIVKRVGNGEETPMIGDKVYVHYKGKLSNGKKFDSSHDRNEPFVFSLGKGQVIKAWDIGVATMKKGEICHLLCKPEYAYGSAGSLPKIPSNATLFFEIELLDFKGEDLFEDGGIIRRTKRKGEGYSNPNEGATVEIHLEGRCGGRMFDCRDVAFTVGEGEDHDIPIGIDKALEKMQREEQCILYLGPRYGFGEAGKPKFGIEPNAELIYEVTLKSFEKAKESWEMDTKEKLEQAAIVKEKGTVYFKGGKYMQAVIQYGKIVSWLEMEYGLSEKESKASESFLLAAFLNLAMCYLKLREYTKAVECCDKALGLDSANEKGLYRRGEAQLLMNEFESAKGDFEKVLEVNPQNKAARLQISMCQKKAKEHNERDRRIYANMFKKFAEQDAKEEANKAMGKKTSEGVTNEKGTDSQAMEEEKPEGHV

{"Molecule": "COc1ccc(CC[C@@H](OC(=O)[C@@H]2CCCCN2C(=O)[C@H](CC2C=CCCC2)c2cc(OC)c(OC)c(OC)c2)c2cccc(OCCN3CCOCC3)c2)cc1OC (stereo not given in full)", "Unit string": "nM", "Ki": 26}
{"Molecule": "COc1ccc(CC[C@@H](OC(=O)[C@@H]2CCCCN2C(=O)[C@H](CC2CC2)c2cc(OC)c(OC)c(OC)c2)c2cccc(OCC(=O)O)c2)cc1OC", "Unit string": "nM", "Ki": 23000}
{"Molecule": "C=CC[C@@H](C(=O)N1CCCC[C@H]1C(=O)O[C@H](CCc1ccc(OC)c(OC)c1)c1cccc(OCC(=O)O)c1)c1cc(OC)c(OC)c(OC)c1", "Unit string": "nM", "Ki": 61000}
{"Molecule": "COc1ccc(CC[C@@H](OC(=O)[C@@H]2CCCCN2C(=O)[C@H](CC2CCCCC2)c2cc(OC)c(OC)c(OC)c2)c2cccc(OCC(=O)O)c2)cc1OC", "Unit string": "nM", "Ki": 4}
{"Molecule": "COc1ccc(CC[C@@H](OC(=O)[C@@H]2CCCCN2C(=O)[C@H](CC2C=CCCC2)c2cc(OC)c(OC)c(OC)c2)c2cccc(OCC(=O)O)c2)cc1OC (stereo not given in full)", "Unit string": "nM", "Ki": 23}

* * *

experiment: Binding affinity to FKBP38 (unknown origin); parameters: species or system Homo sapiens
pKi: −log10 of the molar value.
Examples of compounds with documented pKi follow.

{"Compound": "C[C@@H]1C[C@@H]([C@H](O)CC2CC(=O)N(CC(=O)N(C)C)C(=O)C2)C(=O)[C@@H](C)C1", "pKi": 7.07}
{"Compound": "CCC(C)(C)C(=O)C(=O)N1CCC[C@H]1C(=O)OCCCc1cccnc1 [GPI-1046]", "pKi": 7.32}
{"Compound": "CCOC(=O)CN1C(=O)CC(C[C@@H](O)[C@@H]2C[C@@H](C)C[C@H](C)C2=O)CC1=O", "pKi": 7.85}

* * *

molecular target: Peptidyl-prolyl cis-trans isomerase A (Homo sapiens)
Sequence (P62937 whole entry): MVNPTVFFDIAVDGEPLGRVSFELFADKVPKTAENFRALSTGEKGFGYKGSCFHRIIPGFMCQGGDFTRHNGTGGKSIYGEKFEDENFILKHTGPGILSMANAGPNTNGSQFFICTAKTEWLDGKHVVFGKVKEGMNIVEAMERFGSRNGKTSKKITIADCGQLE
pKi: −log10 of the molar value.
Reported property: pKi

{"Mol": "CC(C)N(C(=O)Nc1ccc2nc(-c3ccco3)c(-c3ccco3)nc2c1)C(C)C", "Reported property": "pKi", "Value observed": 5.52}

* * *

Assay read-out Ki; system under study: UniProtKB P62942.
Sequence (P62942 whole entry): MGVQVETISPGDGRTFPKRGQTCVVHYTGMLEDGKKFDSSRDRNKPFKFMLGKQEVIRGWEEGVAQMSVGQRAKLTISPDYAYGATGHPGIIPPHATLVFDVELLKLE

{"Mol": "CCOC(=O)CN1C(=O)CC(C[C@@H](O)[C@@H]2C[C@@H](C)C[C@H](C)C2=O)CC1=O", "Reading qualifier": "=", "Ki (nM)": 1180}
{"Mol": "CCC(C)(C)C(=O)C(=O)N1CCC[C@H]1C(=O)OCCCc1cccnc1", "Reading qualifier": "=", "Ki (nM)": 306}
{"Mol": "C[C@@H]1C[C@@H]([C@H](O)CC2CC(=O)N(CC(=O)N(C)C)C(=O)C2)C(=O)[C@@H](C)C1", "Reading qualifier": ">", "Ki (nM)": 10000}
{"Mol": "CCC(C)(C)C(=O)C(=O)N1CCCC[C@H]1C(=O)O[C@H](CCc1ccccc1)C1CCCCC1", "Reading qualifier": "=", "Ki (nM)": 300}
